target: ATX (autotaxin) (Homo sapiens, UniProt Q13822); construct: conditioned serum-free medium (CCM) from MDA MB-435 cells as the source of ATX; endogenous in cells; host or cells: MDA-MB-435 cells (secreted into serum-free conditioned medium, concentrated ~10 fold); assay: ATX inhibition assay: ATX-catalyzed FS-3 hydrolysis, fluorescence, concentrated conditioned medium from MDA MB-435 cells as ATX source; type: biochemical; conditions: 10 μM compound; FS-3 substrate; read at 1 hour; normalized to vehicle control; mean ± S.D. of at least three wells
Note to self: values exactly at 40% are True. So % ATX Activity at 10 μM at or above 40% is True, below is False.

Form field: % ATX Activity at 10 μM at least 40%? Entry: O=C(O)c1ccc(CN2C(=O)c3ccc(C(=O)c4ccc5c(c4)C(=O)N(Cc4ccc(C(=O)O)cc4)C5=O)cc3C2=O)cc1
True

Form field: % ATX Activity at 10 μM at least 40%? Entry: O=C(O)c1ccc(Oc2ccc(C(=O)c3ccc4c(c3)C(=O)N(c3cccc5ccccc35)C4=O)cc2)cc1
False

Form field: % ATX Activity at 10 μM at least 40%? Entry: O=C(O)c1cc(C(=O)O)cc(N2C(=O)c3ccc(C(=O)c4ccc5c(c4)C(=O)N(c4cc(C(=O)O)cc(C(=O)O)c4)C5=O)cc3C2=O)c1
True

Form field: % ATX Activity at 10 μM at least 40%? Entry: O=C(NN1C(=O)c2ccc(C(=O)c3ccc4c(c3)C(=O)N(NC(=O)c3ccncc3)C4=O)cc2C1=O)c1ccncc1
False

Form field: % ATX Activity at 10 μM at least 40%? Entry: O=C(O)c1ccc2c(c1)C(=O)N(c1cccc(C(=O)Nc3cccc(Cl)c3)c1)C2=O
True

Form field: % ATX Activity at 10 μM at least 40%? Entry: O=C(O)c1cccc(NC(=O)c2ccc3c(c2)C(=O)N(c2ccc(/N=N/c4ccccc4)cc2)C3=O)c1
True

Form field: % ATX Activity at 10 μM at least 40%? Entry: CCn1c(SCC(=O)Nc2ccc(C(C)=O)cc2)nc2nc3c(cc2c1=O)CCCC3
False
